Each record here notes measured MIC Coagulase Negative Staphylococcus (GC 6257).
- Test system: Staphylococcus sp.
- assay: In vitro antibacterial evaluation: minimum inhibitory concentration (MIC), broth dilution method
- Assay type: cell-based
- measurement_conditions: strain GC 6257
- Excerpt: […]
quantity_measured: MIC Coagulase Negative Staphylococcus (GC 6257) (µg/mL)

molecule | experimental_system | measurement
CC(c1ccccc1)C1NC(=O)CNC(=O)C(CO)NC(=O)C(C(O)C2CNC(=N)N2C2OC(CO)C(O)C(O)C2O)NC(=O)C(C(O)C2CNC(=N)N2)NC(=O)C(Cc2ccc(OC3OC(CO)C(OC4OC5COC(CC6CCN(C(=O)OCc7ccccc7)CC6)OC5C(O)C4O)C(O)C3O)cc2)NC1=O (stereo not drawn) | Staphylococcus sp. | 0.5
CC(c1ccccc1)C1NC(=O)CNC(=O)C(CO)NC(=O)C(CC2CNC(=N)N2C2OC(CO)C(O)C(O)C2O)NC(=O)C(CC2CNC(=N)N2)NC(=O)C(Cc2ccc(OC3OC(CO)C(OC4OC5COC6(OC5C(O)C4O)C4CC5CC(C4)CC6C5)C(O)C3O)cc2)NC1=O (stereo not drawn) | Staphylococcus sp. | 1
CCC(CC)C1OCC2OC(OC3C(CO)OC(Oc4ccc(CC5NC(=O)C(C(C)c6ccccc6)NC(=O)CNC(=O)C(CO)NC(=O)C(C(O)C6CNC(=N)N6C6OC(CO)C(O)C(O)C6O)NC(=O)C(C(O)C6CNC(=N)N6)NC5=O)cc4)C(O)C3O)C(O)C(O)C2O1 (stereo not drawn) | Staphylococcus sp. | 0.5
